Reported Kd values for the following binders.
- Tested target: T1, DprA (DrDprA) (Deinococcus radiodurans R1 ATCC 13939, UniProt Q9RY31 1-370)
- T1 sequence: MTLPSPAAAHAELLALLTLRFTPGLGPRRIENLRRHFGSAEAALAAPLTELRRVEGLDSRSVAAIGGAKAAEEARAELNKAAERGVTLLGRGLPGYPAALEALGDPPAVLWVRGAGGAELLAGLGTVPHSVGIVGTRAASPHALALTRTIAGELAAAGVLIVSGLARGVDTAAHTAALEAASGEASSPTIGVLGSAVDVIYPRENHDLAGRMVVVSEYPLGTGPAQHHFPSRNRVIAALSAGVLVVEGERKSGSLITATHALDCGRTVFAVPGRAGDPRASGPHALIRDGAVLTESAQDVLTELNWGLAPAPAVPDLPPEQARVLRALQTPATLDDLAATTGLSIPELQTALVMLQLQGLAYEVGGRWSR
- Assay name: fluorescence anisotropy; 2.5 mM Mg2+; apparent Kd; 25 mM NaCl, 20 mM Tris pH 7.5, 2.5 mM MgCl2, 2.5% (v/v) glycerol, 25 nM 5'-fluorescein ssDNA, 20 C; 35-mers of varying GC content (Fig. 5B) also tested, affinity rises with GC, but number, sequences and values not in the material
- Experimental setup: protein: recombinant; tags: C-terminal His6; chain copies: 2; label: 5'-fluorescein

>  <Binder>
dT100 (ssDNA) DNA: TTTTTTTTTTTTTTTTTTTTTTTTTTTTTTTTTTTTTTTTTTTTTTTTTTTTTTTTTTTTTTTTTTTTTTTTTTTTTTTTTTTTTTTTTTTTTTTTTTTT

>  <Kd, nM>
1000

$$$$
>  <Binder>
TTTTTTTTTTTTTTTTTTTTTTTTTTTTTTTTTTTTTTTTTTTTTTTTTT (ssDNA) [dT50]

>  <Kd, nM>
1200

$$$$
>  <Binder>
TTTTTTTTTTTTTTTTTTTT (ssDNA) [dT20]

>  <Kd, nM>
7500

$$$$
